MEASUREMENT_NOTES: Phase I calcium acetate interaction study
Format: in vivo, human
CONDITIONS: human, plasma, oral, 300 mg, Vadadustat 300 mg alone, immediately after breakfast
QUANTITY_NAME: AUC(0-t) (µg·h/mL)
Reply with just the number (in µg·h/mL).

Given the compound `O=C(O)CNC(=O)c1ncc(-c2cccc(Cl)c2)cc1O` , what is its reported AUC(0-t)? 163

---

MEASUREMENT_NOTES: Phase 1 oral iron interaction study, Cohort 1 (after meal): sodium ferrous citrate, ferric citrate hydrate
Format: in vivo, human
CONDITIONS: male, human, plasma, oral, 150 mg, Compound 1 150 mg alone, read-out: AUC(0-inf), LS geometric mean
QUANTITY_NAME: AUC(0-inf) (µg·h/mL)
Reply with just the number (in µg·h/mL).

Given the molecule O=C(O)CNC(=O)c1ncc(-c2cccc(Cl)c2)cc1O [Compound 1] , what is its reported AUC(0-inf)? 104

---

MEASUREMENT_NOTES: Plasma pharmacokinetics, 150/300/600 mg once daily, first day
Format: in vivo
CONDITIONS: male, human, 600 mg once daily, healthy adult men
QUANTITY_NAME: AUC(0-t) (µg·h/mL)
Reply with just the number (in µg·h/mL).

Given the molecule `O=C(O)CNC(=O)c1ncc(-c2cccc(Cl)c2)cc1O` , what is its reported AUC(0-t)? 624

---

MEASUREMENT_NOTES: Phase 1 oral iron interaction study, Cohort 2 (before meal): sucroferric oxyhydroxide
Type: in vivo, human
CONDITIONS: male, human, plasma, oral, 150 mg; read-out: AUC(0-last), LS geometric mean
QUANTITY_NAME: AUC(0-t)
Put down the number, then write its unit next to it.

Given the molecule `O=C(O)CNC(=O)c1ncc(-c2cccc(Cl)c2)cc1O` , what is its reported AUC(0-t)? 95700 ng·h/mL

---

MEASUREMENT_NOTES: Phase I calcium acetate interaction study
Type: in vivo, human
CONDITIONS: human, plasma, oral, 300 mg, Concomitant administration with calcium acetate 1334 mg after breakfast; read-out: AUC0-∞
QUANTITY_NAME: AUC(0-inf) (ng·h/mL)
Reply with just the number (in ng·h/mL).

Given the compound O=C(O)CNC(=O)c1ncc(-c2cccc(Cl)c2)cc1O [Compound 1] , what is its reported AUC(0-inf)? 79600

---

MEASUREMENT_NOTES: Phase 1 oral iron interaction study, Cohort 1 (after meal): sodium ferrous citrate, ferric citrate hydrate
Type: in vivo, human
CONDITIONS: male, human, plasma, oral, 150 mg with ferric citrate hydrate (2000 mg ferric citrate), read-out: AUC(0-last), LS geometric mean
QUANTITY_NAME: AUC(0-t) (ng·h/mL)
Reply with just the number (in ng·h/mL).

Given the compound O=C(O)CNC(=O)c1ncc(-c2cccc(Cl)c2)cc1O [Compound 1] , what is its reported AUC(0-t)? 31100

---

MEASUREMENT_NOTES: Phase I single-dose study, moderate hepatic impairment versus normal hepatic function
Assay type: in vivo, human
CONDITIONS: both sexes, human, plasma, oral, 450 mg, single 450 mg, Moderate Hepatic Impairment, mean ± SD; read-out: AUC0-inf, plasma, total
QUANTITY_NAME: AUC(0-inf)

Given the compound O=C(O)CNC(=O)c1ncc(-c2cccc(Cl)c2)cc1O [Compound 1] , what is its reported AUC(0-inf)? 436 µg·h/mL

---

MEASUREMENT_NOTES: Plasma pharmacokinetics, 150/300/600 mg once daily, first day
Type: in vivo
CONDITIONS: male, human, 600 mg once daily, healthy adult men
QUANTITY_NAME: Cmax (µg/mL)
Reply with just the number (in µg/mL).

Given the molecule O=C(O)CNC(=O)c1ncc(-c2cccc(Cl)c2)cc1O [Compound 1] , what is its reported Cmax? 84.8

---

MEASUREMENT_NOTES: Phase 1 oral iron interaction study, Cohort 1 (after meal): sodium ferrous citrate, ferric citrate hydrate
Format: in vivo, human
CONDITIONS: male, human, plasma, oral, 150 mg, Compound 1 150 mg alone, read-out: AUC(0-last), LS geometric mean
QUANTITY_NAME: AUC(0-t) (µg·h/mL)
Reply with just the number (in µg·h/mL).

Given the molecule `O=C(O)CNC(=O)c1ncc(-c2cccc(Cl)c2)cc1O` , what is its reported AUC(0-t)? 99.2

---

MEASUREMENT_NOTES: Phase 1 oral iron interaction study, Cohort 2 (before meal): sucroferric oxyhydroxide
Format: in vivo, human
CONDITIONS: male, human, plasma, oral, 150 mg; read-out: AUC(0-inf), LS geometric mean
QUANTITY_NAME: AUC(0-inf) (ng·h/mL)
Reply with just the number (in ng·h/mL).

Given the molecule O=C(O)CNC(=O)c1ncc(-c2cccc(Cl)c2)cc1O [Compound 1] , what is its reported AUC(0-inf)? 99500

---

MEASUREMENT_NOTES: Phase I calcium acetate interaction study
Format: in vivo, human
CONDITIONS: human, plasma, oral, 300 mg, Vadadustat 300 mg alone, immediately after breakfast, median
QUANTITY_NAME: Tmax (h)
Reply with just the number (in h).

Given the compound `O=C(O)CNC(=O)c1ncc(-c2cccc(Cl)c2)cc1O` , what is its reported Tmax? 3.93

---

MEASUREMENT_NOTES: Phase I calcium acetate interaction study
Assay type: in vivo, human
CONDITIONS: human, plasma, oral, 300 mg, Vadadustat administered 1 hour prior to calcium acetate, fasting
QUANTITY_NAME: AUC(0-t) (µg·h/mL)
Reply with just the number (in µg·h/mL).

Given the molecule `O=C(O)CNC(=O)c1ncc(-c2cccc(Cl)c2)cc1O` , what is its reported AUC(0-t)? 130

---

MEASUREMENT_NOTES: Phase 1 oral iron interaction study, Cohort 1 (after meal): sodium ferrous citrate, ferric citrate hydrate
Assay type: in vivo, human
CONDITIONS: male, human, plasma, oral, 150 mg with sodium ferrous citrate (200 mg iron), read-out: t1/2, LS geometric mean (converted)
Excerpt: The study included 3 periods as follow: • Screening: performed within 4 weeks before the day of administration of the study drug. • Evaluation period: Cohort 1 was confined to the study site for 10-night, 11-day. Cohort 2 and Cohort 3 were confined to the study site for 7 nights and 8 days. • Post-administration tests: performed 3 days after administration of the last dose of the study drug. […]
QUANTITY_NAME: half-life (h)
Reply with just the number (in h).

Given the compound O=C(O)CNC(=O)c1ncc(-c2cccc(Cl)c2)cc1O [Compound 1] , what is its reported half-life? 5.34

---

MEASUREMENT_NOTES: Phase I interaction study Part 2 Arm 2: pravastatin
Format: in vivo, human
CONDITIONS: both sexes, human, plasma, oral; Treatment P + V: pravastatin 40 mg + vadadustat 600 mg QD
QUANTITY_NAME: Cmax (ng/mL)
Reply with just the number (in ng/mL).

Given the molecule CC[C@H](C)C(=O)O[C@H]1C[C@H](O)C=C2C=C[C@H](C)[C@H](CC[C@@H](O)C[C@@H](O)CC(=O)O)[C@H]21 [Pravastatin, pravastatin] , what is its reported Cmax? 44

---

MEASUREMENT_NOTES: Phase I interaction study Part 2 Arm 1: sulfasalazine
Format: in vivo, human
CONDITIONS: both sexes, human, in vivo, 500 mg
QUANTITY_NAME: AUC(0-t) (ng·h/mL)
Reply with just the number (in ng·h/mL).

Given the compound O=C(O)c1cc(/N=N/c2ccc(S(=O)(=O)Nc3ccccn3)cc2)ccc1O [Sulfasalazine, sulfasalazine, reference compound] , what is its reported AUC(0-t)? 82200

Given the compound Nc1ccc(S(=O)(=O)Nc2ccccn2)cc1 [Sulfapyridine, sulfapyridine] , what is its reported AUC(0-t)? 42400

---

MEASUREMENT_NOTES: Influence of meal on pharmacokinetics, single 450 mg dose
CONDITIONS: male, human, in vivo, oral, After Meal, healthy adult males, read-out: tmax
QUANTITY_NAME: Tmax

Given the compound `O=C(O)CNC(=O)c1ncc(-c2cccc(Cl)c2)cc1O` , what is its reported Tmax? 3.52 h

---

MEASUREMENT_NOTES: Phase 1 oral iron interaction study, Cohort 3 (fasting): dried ferrous sulfate slow release
Type: in vivo, human
CONDITIONS: male, human, plasma, oral, 150 mg; read-out: AUC(0-last), LS geometric mean
QUANTITY_NAME: AUC(0-t) (µg·h/mL)
Reply with just the number (in µg·h/mL).

Given the compound `O=C(O)CNC(=O)c1ncc(-c2cccc(Cl)c2)cc1O` , what is its reported AUC(0-t)? 124

---

MEASUREMENT_NOTES: Phase I single-dose study, moderate hepatic impairment versus normal hepatic function
Format: in vivo, human
CONDITIONS: both sexes, human, plasma, oral, 450 mg, Volume of distribution (Vd/F), Unbound Compound 1, single 450 mg, Moderate Hepatic Impairment, mean ± SD
QUANTITY_NAME: Vd/F (L)
Reply with just the number (in L).

Given the compound O=C(O)CNC(=O)c1ncc(-c2cccc(Cl)c2)cc1O [Compound 1] , what is its reported Vd/F? 1490

Where do these numbers come from? They come from patent US20230263786A1.
